Molecular target: T1, APBA1_2, Q02410
T1 sequence (Q02410 742-832, limits assumed, looked up): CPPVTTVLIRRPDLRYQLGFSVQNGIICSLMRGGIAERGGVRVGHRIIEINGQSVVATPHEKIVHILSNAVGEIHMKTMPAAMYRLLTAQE
Experiment: holdup assay
Set-up: key: below the threshold = too weak to quantify, mostly under pKd 3.1 to 4
Settings: plain residues with an end cap or a label only (N-terminal biotin on a linker: ttds)

{"BINDER": "NPDALPETLV [ARHGAP6, O43182]", "pKd": "below the threshold"}
{"BINDER": "KLVIKTETTV [RASSF6, Q6ZTQ3]", "pKd": "below the threshold"}
{"BINDER": "QRPYRRESEI [KCNJ12, Q14500]", "pKd": "below the threshold"}
